biological target: T1, human IL-2 (recombinant IL-2, Humanzyme) (human, UniProt P60568 21-153); assay: SPR (Biacore T200), IgG captured by anti-human IgG, IL-2 injected, 25 C, 1:1 Langmuir fit
T1 construct: It may include the signal peptide; also called hIL-2; interleukin-2
T1 sequence (P60568 21-153 limits assumed): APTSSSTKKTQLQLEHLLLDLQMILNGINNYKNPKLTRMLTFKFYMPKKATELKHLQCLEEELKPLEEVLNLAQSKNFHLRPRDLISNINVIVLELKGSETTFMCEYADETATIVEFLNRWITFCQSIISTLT
Attribute measured: kon

16C3 (antibody, V domains shown) VH: QVQLVQSGGGVVQPGRSLRLSCAASGFTFSNYAMNWVRQAPGKGLEWVTLISYDGSQKYYADSVKGRFTTSRDNSKNTLYLQMNSLRAEDTAVYYCARDSTTLGAFDVWGQGTMVTVSS VL: SYELTQPPSLSVSPGQTATISCSGDAFPRKFAYWYQQKSGQAPVLVIYEDTRRPSGIPERFSGSSSGTMATLTISGAQVEDEADYFCYSTDTTGTHRVFGGGTKLTVL    989000 M⁻¹ s⁻¹

# context switch: different binder, same kon
Input line: Quick one: give measured kon for F5.1.11 (antibody, V domains shown) VH: QLQLQESGPGLVKPSQTLSLTCTVSGGSISSGGYYWSWIRQHPGKGLEWIGYIYYSGSTYYNPSLKSRVTISVDTSKNQFSLKLSSVTAADTAVYYCARTPTVTGDWFDPWGRGTLVTVSS VL: NFMLTQPHSVSESPGKTVTISCTRSSGSIASNYVQWYQQRPGSSPTTVIYEDNQRPSGVPDRFSGSIDSSSNSASLTISGLKTEDEADYYCQSYDSSNVVFGGGTKLTVL
Output line: 2.21e+06 M⁻¹ s⁻¹
